Source: PubChem BioAssay AID504777

Tested on: mouse liver microsomes without NADPH, LC-MS/MS
Assay: Enhancers of SMN2 Splice Variant Expression: Metabolic Stability in absence of NADPH Profiling
Settings: at 1 µM; hits give high values
observation-type: percent remaining

INPUT: Lab note: need percent remaining for "O=C(O)C1CCN(c2nc(-c3ccc(Br)cc3)cs2)CC1" on mouse liver microsomes without NADPH, LC-MS/MS, anyone have it?
OUTPUT: 95%
